assay: recombinant UMI read abundance after kanamycin selection (control-corrected) (log10(CPM+1)); higher = more efficient recombination; extreme values may be limits of the assay; sequences stand for … in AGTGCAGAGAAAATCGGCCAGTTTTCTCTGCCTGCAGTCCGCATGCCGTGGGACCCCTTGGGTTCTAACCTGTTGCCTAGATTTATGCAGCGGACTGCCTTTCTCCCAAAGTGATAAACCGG…AGGTTGGTTTCACT; site = the 11-nt donor;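 further: IS621 bridge recombinase in Escherichia coli cells against a fixed T5 target plasmid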
recordedEndpoint: recombinant UMI read abundance (log10)

Known recombinant UMI read abundance (log10) results, listed for orientation:
[[record]]
entrysequence = "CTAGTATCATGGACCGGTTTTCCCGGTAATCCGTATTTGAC (site CGAGGATCTGT)"
observed = 0

[[record]]
entrysequence = "ATCTTTACATGGACCGGTTTTCCCGGTAATCCGTATTTGAC (site ATCTTTACTGT)"
observed = 0.661

[[record]]
entrysequence = "ATGATATCATGGACCGGTTTTCCCGGTAATCCGTATTTGCA (site ATGATATCTTG)"
observed = 2.39

[[record]]
entrysequence = "GGTGGAACATGGACCGGTTTTCCCGGTAATCCGTATTTGTT (site TGTGGAACTAA)"
observed = 0.00382

[[record]]
entrysequence = "AAATCGTCATGGACCGGTTTTCCCGGTAATCCGTATTTGCT (site AAATCGTCTAG)"
observed = 2.36

[[record]]
entrysequence = "TCAGTATCATGGACCGGTTTTCCCGGTAATCCGTATTTGCA (site TCAGTATCTTG)"
observed = 2.23

[[record]]
entrysequence = "CAAGGAGCATGGACCGGTTTTCCCGGTAATCCGTATTTGCT (site CAAGTAGCTAG)"
observed = 2.2

[[record]]
entrysequence = "CACTCGACATGGACCGGTTTTCCCGGTAATCCGTATTTGTG (site CACTCGACTCA)"
observed = 0.319


Pending sequence:
Give recorded recombinant UMI read abundance (log10). ACTGTATCATGGACCGGTTTTCCCGGTAATCCGTATTTGCA (site ACAGTATCTTG)
1.82
